# target or test system: Notch receptor (human)
# test method notes: cell-based or functional assay
observable: IC50 (ng Ab/mL), MTS viability of HCC2429 cells (repeat 1)

{"binder": "Notch-75-v1913-hG1-(C)_mcValCitPABC-#54 (antibody, human IgG1, kappa, V domains shown, drug-linker mcValCitPABC-#54 on cysteine (C), positions not given; drug-linker mcValCitPABC-#54 on cysteine (C), positions not given; DAR 3.8 per antibody) VH: EVQLVESGGGLVQPGGSLRLSCAASGYAFTDYWMTWVRQAPGKGLEWVAEISPNSGGTNFNEKFKGRFTISVDNAKNSLYLQMNSLRAEDTAVYYCARGEIRYNWFAYWGQGTLVTVSS VL: DIQMTQSPSSLSASVGDRVTITCKASQNVGNNIAWYQQKPGKAPKLLIYYASNRYTGVPSRFSGSGYGTDFTLTISSLQPEDFATYYCQRLYNSPFTFGGGTKVEIKR", "val": "611 ng Ab/mL"}
{"binder": "Notch-28-v1010-hG1-(C)_mcValCitPABC-#112 (antibody, human IgG1, kappa, V domains shown, drug-linker mcValCitPABC-#112 on cysteine (C), positions not given; drug-linker mcValCitPABC-#112 on cysteine (C), positions not given; DAR 3.9 per antibody) VH: EVQLVESGGGLVQPGGSLRLSCAASGFTFRDYGMTWVRQAPGKGLEWVAYISSGSNYIYYAEAVKGRFTISRDNAKNSLYLQMNSLRAEDTAVYYCARRGPFVLDAWGQGTLVTVSS VL: DIQMTQSPSSLSASVGDRVTITCKASQSINRYLHWYQQKPGKAPKLLIYNANGLQTGVPSRFSGSGSGTDFTLTISSLQPEDFATYYCLQHNTWPDTFGGGTKVEIKR", "val": "148 ng Ab/mL"}
{"binder": "Notch-75-v1913-hG1-(C)_mcValCitPABC-#112 (antibody, human IgG1, kappa, V domains shown, drug-linker mcValCitPABC-#112 on cysteine (C), positions not given; drug-linker mcValCitPABC-#112 on cysteine (C), positions not given; DAR 4.2 per antibody) VH: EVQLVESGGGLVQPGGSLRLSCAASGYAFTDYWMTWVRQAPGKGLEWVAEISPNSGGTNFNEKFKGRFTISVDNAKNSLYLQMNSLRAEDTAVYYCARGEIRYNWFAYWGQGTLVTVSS VL: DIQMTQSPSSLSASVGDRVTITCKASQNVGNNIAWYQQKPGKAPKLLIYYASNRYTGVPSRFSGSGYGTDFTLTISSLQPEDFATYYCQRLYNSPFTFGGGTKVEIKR", "val": "214 ng Ab/mL"}

These measurements were taken from patent US20130129753A1.
